Reference for the values: paper PMC6934975

- measurementTarget: α-Glucosidase (E.C. 3.2.1.20) from Saccharomyces cerevisiae (Saccharomyces cerevisiae, UniProt P53341)
- Construct: purchased Sigma-Aldrich
- Sequence (P53341 whole entry): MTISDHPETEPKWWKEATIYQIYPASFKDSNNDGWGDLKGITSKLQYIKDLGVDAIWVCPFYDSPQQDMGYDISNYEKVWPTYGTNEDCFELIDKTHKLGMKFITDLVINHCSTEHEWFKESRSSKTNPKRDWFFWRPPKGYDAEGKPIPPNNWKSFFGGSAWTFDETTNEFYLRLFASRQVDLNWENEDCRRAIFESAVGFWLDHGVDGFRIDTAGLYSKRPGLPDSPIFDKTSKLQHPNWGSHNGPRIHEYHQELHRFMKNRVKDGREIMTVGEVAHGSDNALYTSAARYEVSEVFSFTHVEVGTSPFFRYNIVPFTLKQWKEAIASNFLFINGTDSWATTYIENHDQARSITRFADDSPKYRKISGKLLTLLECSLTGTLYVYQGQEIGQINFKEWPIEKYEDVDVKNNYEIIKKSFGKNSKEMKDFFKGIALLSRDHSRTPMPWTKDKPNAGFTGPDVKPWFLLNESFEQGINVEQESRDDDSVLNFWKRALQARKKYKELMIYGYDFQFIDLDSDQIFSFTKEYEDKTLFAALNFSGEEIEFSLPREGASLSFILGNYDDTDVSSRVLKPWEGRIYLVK
- experimentalDetails: α-Glucosidase inhibitory activity assay in vitro (PNPG substrate, absorbance at 405 nm)
- Type: biochemical
measuredAttribute: IC50 (µM)

>  <compound>
Oc1cc2c3c(c1)C1c4c(cc(O)cc4C4c5c(cc(O)cc5C3C(c3ccc(O)c(O)c3)O2)OC4c2ccc(O)c(O)c2)OC1c1ccc(O)c(O)c1 (stereo not shown) [Cyperusphenol D (3), Cyperusphenol D]

>  <resultUnit>
µM

>  <numericValue>
1.18

$$$$
>  <compound>
Oc1ccc(/C=C/c2c3c(cc4c2[C@@H](c2cc(O)cc(O)c2)[C@H](c2ccc(O)c(O)c2)O4)O[C@H](c2ccc(O)c(O)c2)[C@H]3c2cc(O)cc(O)c2)cc1 [Mesocyperusphenol A (2), mesocyperusphenol A]

>  <resultUnit>
µM

>  <numericValue>
1.44

$$$$
>  <compound>
Oc1cc(O)cc(C2c3c(/C=C/c4ccc(O)c(O)c4)cc(O)cc3OC2c2ccc(O)c(O)c2)c1 (stereo not shown) [Scirpusins B (4), Scirpusins B]

>  <resultUnit>
µM

>  <numericValue>
13.3

$$$$
>  <compound>
Oc1ccc(/C=C/c2c3c(cc4c2[C@H](c2cc(O)cc(O)c2)[C@@H](c2ccc(O)c(O)c2)O4)O[C@H](c2ccc(O)c(O)c2)[C@H]3c2cc(O)cc(O)c2)cc1 [Cyperusphenol A (1), (E)-cyperusphenol A]

>  <resultUnit>
µM

>  <numericValue>
1.43

$$$$

###

- measurementTarget: α-Glucosidase (E.C. 3.2.1.20) from Saccharomyces cerevisiae (Saccharomyces cerevisiae, UniProt P53341)
- Construct: purchased Sigma-Aldrich
- experimentalDetails: Kinetic analysis of AGH inhibition (Lineweaver-Burk plot)
- Type: biochemical
- particulars: Lineweaver-Burk plots
measuredAttribute: alpha-glucosidase inhibitory kinetic mode

>  <molecule>
Oc1ccc(/C=C/c2c3c(cc4c2[C@@H](c2cc(O)cc(O)c2)[C@H](c2ccc(O)c(O)c2)O4)O[C@H](c2ccc(O)c(O)c2)[C@H]3c2cc(O)cc(O)c2)cc1 [Mesocyperusphenol A (2), mesocyperusphenol A]

>  <result>
Noncompetitive

$$$$
>  <molecule>
Oc1ccc(/C=C/c2cc(O)cc3c2C(c2cc(O)cc(O)c2)C(c2ccc(O)c(O)c2)O3)cc1 (stereo not drawn) [Scirpusins A (5), Scirpusins A]

>  <result>
Noncompetitive

$$$$
>  <molecule>
Oc1ccc(/C=C/c2c3c(cc4c2[C@H](c2cc(O)cc(O)c2)[C@@H](c2ccc(O)c(O)c2)O4)O[C@H](c2ccc(O)c(O)c2)[C@H]3c2cc(O)cc(O)c2)cc1 [Cyperusphenol A (1), (E)-cyperusphenol A]

>  <result>
Noncompetitive

$$$$

###

- measurementTarget: α-Glucosidase (E.C. 3.2.1.20) from Saccharomyces cerevisiae (Saccharomyces cerevisiae, UniProt P53341)
- Construct: purchased Sigma-Aldrich
- experimentalDetails: Kinetic analysis of AGH inhibition (Lineweaver-Burk plot)
- Format: biochemical
- particulars: Lineweaver-Burk plots
- Experimental: where AS, ASB, AC and ACB are the absorbance of sample, sample blank, control and control blank, respectively. The measurement was performed in triplicates. […] The inhibitory kinetics of the investigated compounds was analyzed using the Lineweaver-Burk plot, double-reciprocal plot of the substrate concentration and velocity.
measuredAttribute: alpha-glucosidase inhibitory kinetic mode

>  <compound>
Oc1cc2c3c(c1)C1c4c(cc(O)cc4C4c5c(cc(O)cc5C3C(c3ccc(O)c(O)c3)O2)OC4c2ccc(O)c(O)c2)OC1c1ccc(O)c(O)c1 (stereo not drawn) [Cyperusphenol D (3), Cyperusphenol D]

>  <result>
Noncompetitive

$$$$
>  <compound>
Oc1cc(O)cc(C2c3c(/C=C/c4ccc(O)c(O)c4)cc(O)cc3OC2c2ccc(O)c(O)c2)c1 (stereo not drawn) [Scirpusins B (4), Scirpusins B]

>  <result>
Noncompetitive

$$$$
